Below, each entry is listed alongside its reported log10 TGI.
Test system: SK-MEL-5 melanoma
Test: NCI tumour cell line growth inhibition, 48 h
Metric name: log10 TGI (log10 of the value in µM)

• COc1ccc(CC2NCCc3cc(OC)c(OC)cc32)cc1Br (centres undefined) = 1.30
• ClCc1cccc(Cn2cnc3nc(Cl)nc(Cl)c32)c1 = 0.29
• CC1=C[C@H]2c3c(c(O)c(O)c4oc(-c5ccccc5)cc(=O)c34)[C@H](c3cc(O)c(O)c4oc(-c5ccccc5)cc(=O)c34)[C@H]2C(C)(C)C1 = 0.33
• CCOc1cc(C(C)(C)C)ccc1C1=N[C@@](C)(c2ccc(Cl)cc2)[C@@](C)(c2ccc(Cl)cc2)N1C(=O)N1CCN(CCCS(C)(=O)=O)CC1 = 0.51
• C=C1C(=O)OC2/C=C(\COC(C)=O)CCC(OC(C)=O)C3=CC(OC3=O)C12 (centres undefined) = 1.43
• C1C[OH+]CC[OH+]CC[OH+]CC[OH+]CC[OH+]1.[Cl-].[V] = 1.42
• CCn1c(SCc2ccc(C)cc2)nnc1-c1nn(-c2ccc(Cl)cc2Cl)c(-c2ccc(Cl)cc2)c1C = 0.44
• c1ccc(C2Nc3ccccc3C3OCCCC23)cc1 (centres undefined) = 1.50

Reference source: PubChem BioAssay (NCI)
